system: PDGFRB; conditions: concentration: 1 μM,replicates: in singlicate; n = 1;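 further: KINOMEscan kinase panel screen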
ENDPOINT LABEL: %Inh (%)
Express your answer in %, writing the number without its unit.

>  <MOLECULE>
COc1cc2ncn(-c3cc(OCC4CCCCC4)c(C(N)=O)s3)c2cc1OC

>  <STUDY TARGET>
PDGFRB

>  <UNIT OF MEASURE>
%

>  <%Inh>
66

$$$$
>  <MOLECULE>
Cn1ccc2ncnc(Oc3ccc(NC(=O)Nc4ccnc(C(F)(F)F)c4)c(Cl)c3)c21

>  <STUDY TARGET>
PDGFRB

>  <UNIT OF MEASURE>
%

>  <%Inh>
100

$$$$
>  <MOLECULE>
Cl.c1ccc(Oc2ccc(Nc3ccnc4cc(-c5ccc(CN6CCNCC6)o5)ccc34)cc2)nc1

>  <STUDY TARGET>
PDGFRB

>  <UNIT OF MEASURE>
%

>  <%Inh>
98.5

$$$$
>  <MOLECULE>
Cc1cccc(-c2nc(Nc3ccncc3)c3sccc3n2)n1

>  <STUDY TARGET>
PDGFRB

>  <UNIT OF MEASURE>
%

>  <%Inh>
27

$$$$
>  <MOLECULE>
CCNCC(Cc1ccccc1)NC(=O)c1cc(Br)c(-c2ccnc3[nH]ccc23)s1.Cl.Cl (stereo not drawn)

>  <STUDY TARGET>
PDGFRB

>  <UNIT OF MEASURE>
%

>  <%Inh>
75

$$$$
>  <MOLECULE>
CS(=O)c1ccc(-c2coc3ccc(-c4n[nH]c(=O)o4)cc23)cc1 (stereo not drawn)

>  <STUDY TARGET>
PDGFRB

>  <UNIT OF MEASURE>
%

>  <%Inh>
0

$$$$
>  <MOLECULE>
CN(c1ccc2c(c1)nc(NCc1ccc(F)cc1)n2C)c1ccnc(Nc2ccc(CS(C)(=O)=O)cc2)n1.Cl

>  <STUDY TARGET>
PDGFRB

>  <UNIT OF MEASURE>
%

>  <%Inh>
100

$$$$
>  <MOLECULE>
Cc1ccc(CC(=O)N2CCc3cc(-c4cn(C)c5ncnc(N)c45)ccc32)cc1

>  <STUDY TARGET>
PDGFRB

>  <UNIT OF MEASURE>
%

>  <%Inh>
96.4

$$$$

Next molecule, %Inh to be filled in.
Lab note: molecule `Cn1cc(-c2cccc3c(N)c(C(N)=O)nnc23)cn1` tested on PDGFRB; recorded %Inh was 10

* * *

Measured %Inh accompanies every entry in the list below.
test system: STK39; conditions: concentration: 1 μM,replicates: in singlicate; n = 1
Express your answer in %, writing the number without its unit.

>  <SMILES RECORD>
O=C(Nc1cccc(Oc2ccc3nccn3n2)c1)Nc1cccc(C(F)(F)F)c1

>  <NUMERIC RESULT>
0

$$$$

Sure, the documented %Inh for `NC(=O)c1ccc(-c2cc3ncnc(SCC(=O)O)c3s2)cc1` is 0

Sure, the documented %Inh for `C[C@@H]1CNc2c(sc3ccc4nc(-c5ccc(O)cc5)ccc4c23)C(=O)N1` is 6

Sure, the documented %Inh for `Cn1ccc2ncnc(Oc3ccc(NC(=O)Nc4cnn(C(C)(C)C)c4)c(Cl)c3)c21` is 0

Sure, the documented %Inh for `c1ccc(Oc2ccc(Nc3ccnc4ccc(-c5ccccn5)cc34)cc2)cc1` is 15

Sure, the documented %Inh for `CNC(=O)c1ccccc1Nc1nc(Nc2cccc(CS(C)(=O)=O)c2)ncc1C.O=CO` is 15
